Cited source: the supplement of paper PMC10567573

B1: TRAF3IP2 (parent)
chain: APWNYHYHCPGSPDHQVPYGHDYP

variants of: B1; assay: protein stability index of a GFP-peptide fusion (GPS, HEK-293T) (PSI 1-6); higher = more stable; conditions: c terminus: a fixed tail appended;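 note: lentivirally expressed fusions sorted by FACS into six bins by GFP to DsRed ratio, PSI derived from sequencing read proportions per bin multiplied by bin number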
Entry flag: Met if protein stability index reaches 2; Not met if it does not.

Worked examples, 5 variants total:
{"VARIANT_ANNOTATION": "Y5V", "CLASS_NAME": "Met"}
{"VARIANT_ANNOTATION": "D22T", "CLASS_NAME": "Met"}
{"VARIANT_ANNOTATION": "V17E", "CLASS_NAME": "Met"}
{"VARIANT_ANNOTATION": "D22R", "CLASS_NAME": "Met"}
{"VARIANT_ANNOTATION": "Y23C", "CLASS_NAME": "Not met"}

stdin: Could you tell me if the measured protein stability index of H21L reaches 2 or more?
stdout: Not met

stdin: Lookup V17R
stdout: Met

stdin: Lookup W3R
stdout: Met

stdin: Lookup W3S
stdout: Met

stdin: Lookup N4W
stdout: Not met

stdin: Lookup Y5C
stdout: Met

stdin: Lookup P2G
stdout: Not met

stdin: Lookup H6G
stdout: Met

stdin: Lookup D14C
stdout: Met

stdin: Lookup Y23E
stdout: Met
